B1: CPEB3 Ribozyme (parent)
chain: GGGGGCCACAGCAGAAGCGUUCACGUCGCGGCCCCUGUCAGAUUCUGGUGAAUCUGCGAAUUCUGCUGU

# Variants of: B1
# method.notes: self-cleavage, relative activity (ratio to wild type); higher = more cleavage; co-transcriptional
I'd appreciate it if you could supply self-cleavage values for the items below.
I only need the number, thanks.

Query block: Name the recorded self-cleavage for G5U C63U .
Result block: 0.24

Query block: Try the variant U49G G68U
Result block: 1.01

Query block: Try the variant G30C U36G
Result block: 0.188

Query block: Try the variant U44G A59G
Result block: 0.951

Query block: Try the variant C22U G56A
Result block: 0.187

Query block: Try the variant U20A G58U
Result block: 0.152

Query block: Try the variant G37A U62A
Result block: 0.225

Query block: Try the variant U61C C66A
Result block: 0.375

Query block: Try the variant G37U U62G
Result block: 0.332

Query block: Try the variant C22G G28U
Result block: 0.182

Query block: Try the variant G19U U26G
Result block: 0.256

Query block: Try the variant G1U A40C
Result block: 0.0668

Query block: Try the variant C24A A59G
Result block: 0.731

Query block: Try the variant U20G A42C
Result block: 0.279

Query block: Try the variant C54U G65A
Result block: 0.884

Query block: Try the variant G31C U46C
Result block: 0.164

Query block: Try the variant G3U C57A
Result block: 0.0577

Query block: Try the variant G30A C35A
Result block: 0.207

Query block: Try the variant G25C U69C
Result block: 0.333

Query block: Try the variant C6A U21A
Result block: 0.554

Query block: Try the variant A23C C32A
Result block: 0.59

Query block: Try the variant A16G G37U
Result block: 0.216

Values from the RNAGym collection of RNA variant scans (doi:10.7554/elife.80360)
